System: Plasmodium berghei
Test: Luciferase/luciferin-expressing antifolate-resistant parasites were used to infect a culture of HepG2 cells that were pre-incubated with compounds. Infected hepatocytes emit light due to the luciferase reaction. Assay results are presented as the percent inhibition of light emission compared to control. […]
Assay type: functional
Settings: sporozoite, PBLUC_HILL_SLOPE 11.1, PBLUC_R_SQUARED 0.12, read-out: LUCIFERASE INFECTION ASSAY - IC50
Metric: IC50

Query: Assign IC50 to the following record: NS(=O)(=O)c1ccc(CNC(=O)Cn2cnc3ccccc3c2=O)cc1
Reply: > 8.86 µM

###

System: Plasmodium berghei
Assay: Luciferase/luciferin-expressing antifolate-resistant parasites were used to infect a culture of HepG2 cells that were pre-incubated with compounds. Infected hepatocytes emit light due to the luciferase reaction. Assay results are presented as the percent inhibition of light emission compared to control. […]
Type: functional
Conditions: sporozoite, read-out: LUCIFERASE INFECTION ASSAY - IC50
Exercise: for every item that follows, state its recorded IC50.

Query: Assign IC50 to the following record: COc1ccc(Nc2nc(CN3CCN(Cc4ccc(C#N)cc4)CC3)cs2)cc1
Reply: > 10 µM

Query: Assign IC50 to the following record: COc1ccccc1-c1noc(COC(=O)c2c[nH]nc2-c2ccccc2)n1
Reply: > 10 µM

Query: Assign IC50 to the following record: Cc1sc2ncnc(Sc3nc4ncccn4n3)c2c1C
Reply: > 2 µM

Query: Assign IC50 to the following record: COc1ccc2c3c(cccc13)C(=O)N(c1nc3ccccc3n1C)C2=O
Reply: > 9.23 µM

Query: Assign IC50 to the following record: COC(=O)c1cc(Br)ccc1NC(=O)c1cccc(S(=O)(=O)N(Cc2ccccc2)c2ccccc2Cl)c1
Reply: > 10 µM

Query: Assign IC50 to the following record: CC(C)Oc1ccc(Nc2nccc3[nH]c(-c4ccsc4)cc23)cc1
Reply: 2.25 µM

Query: Assign IC50 to the following record: CNc1nc(NCc2cccc(OC)c2)c2sc(-c3ccccc3)cc2n1
Reply: > 8.77 µM

Query: Assign IC50 to the following record: Cc1c(C(=O)Nc2cccc(S(=O)(=O)N(C)C)c2)cnn1-c1ccc(=O)[nH]n1
Reply: > 10 µM

Query: Assign IC50 to the following record: Cc1c(Cl)cccc1N=C(SCC(=O)N(C)C1CCCCC1)C(C#N)c1nc2ccccc2s1 (stereo unspecified)
Reply: > 10 µM

Query: Assign IC50 to the following record: O=C(Cc1noc2ccccc12)Nc1ccc(C(=O)N2CCCC2)cc1
Reply: > 10 µM

Query: Assign IC50 to the following record: C=CCc1cc(C(=O)Nc2ccc3oc(C)nc3c2)cc(OC)c1OC
Reply: 4.31 µM

Query: Assign IC50 to the following record: CC(C)c1ccc(CS(=O)(=O)C(C)C(=O)NC2CCCC2)cc1 (stereo unspecified)
Reply: > 10 µM

Query: Assign IC50 to the following record: O=C1N(CCCc2cccnc2)C(=O)C2(CCN(Cc3ccsc3)CC2)N1Cc1ccccc1
Reply: > 6.95 µM

Query: Assign IC50 to the following record: Cc1cc(C)nc(N/N=C2/CCCC/C2=C\c2ccccc2)n1
Reply: > 10 µM

Query: Assign IC50 to the following record: CC(C)c1ccc(C(NCC(=O)NC(=O)NC2CCCC2)c2cccs2)cc1 (stereo unspecified)
Reply: > 10 µM

Query: Assign IC50 to the following record: CN(C)C(=O)c1ccc(-c2cnc3cnc(-c4ccc(F)c(Cl)c4)cn23)cc1
Reply: > 8.36 µM

Query: Assign IC50 to the following record: COc1cccc(/C=C(\c2nc3ccccc3[nH]2)c2nc3ccccc3s2)c1
Reply: > 10 µM

Query: Assign IC50 to the following record: Clc1ccc(-c2cnc3sc(NCCc4ccncc4)nn23)cc1
Reply: > 9.27 µM

Query: Assign IC50 to the following record: O=S(=O)(c1ccccc1)N1CN(c2ccc(N3CCOCC3)cc2)c2nc3ccccc3nc21
Reply: > 10 µM

Query: Assign IC50 to the following record: CCOC(=O)c1cnc(NNC(=O)c2ccc(Cl)cc2Cl)nc1C(F)(F)F
Reply: > 7.8 µM

Query: Assign IC50 to the following record: CN1/C(=C/C=C/c2ccc3ccccc3[n+]2C)C=Cc2ccccc21
Reply: 2.47 µM

Numbers sourced from ChEMBL document CHEMBL4483862.
